system: deadnettle (henbit deadnettle, Lamium amplexicaule); assay: Test D controlled growth environment herbicide test, pre- and postemergence; format: in vivo; details: Postemergence, 31 g ai/ha; scale 0 to 100 (0 no effect, 100 complete control)
# maps each entry to its Deadnettle plant response rating

smiles-record: CCc1sc2ccc(C)cc2c1-c1c(O)c(C)nn(C)c1=O
Deadnettle plant response rating: 20

smiles-record: Cc1cc(C)c2ccccc2c1-c1c(O)c(C)nn(C)c1=O
Deadnettle plant response rating: 90

smiles-record: CC(=O)Oc1c(C)nn(C)c(=O)c1-c1c(C)sc2ccc(Cl)cc12
Deadnettle plant response rating: 35

smiles-record: Cc1nn(C)c(=O)c(-c2cccc3ccccc23)c1O
Deadnettle plant response rating: 75

----------
tested on: pigweed (Amaranthus retroflexus); test: Test A greenhouse herbicide test, pre- and postemergence; type: in vivo; conditions: Postemergence, 125 g ai/ha; 0 to 100 scale where 0 is no effect and 100 is complete control
Description: […]
# maps each entry to its Plant response rating, Pigweed

smiles-record: CC(=O)Oc1cnn(C)c(=O)c1-c1c(C)sc2ccccc12
Plant response rating, Pigweed: 20
//
smiles-record: Cc1ccc2ccccc2c1-c1c(OS(C)(=O)=O)cnn(C)c1=O
Plant response rating, Pigweed: 20
//
smiles-record: Cc1nn(C)c(=O)c(-c2ccc(F)c3ccccc23)c1O
Plant response rating, Pigweed: 60
//
smiles-record: CCC(=O)Oc1c(C)nn(C)c(=O)c1-c1ccc(Cl)c2ccccc12
Plant response rating, Pigweed: 100
//
smiles-record: COC(=O)Oc1c(C)nn(C)c(=O)c1-c1c(C(F)(F)F)ccc2ccccc12
Plant response rating, Pigweed: 90
//
smiles-record: Cc1nn(C)c(=O)c(-c2c(C)n(C)c3ccc(Cl)cc23)c1O
Plant response rating, Pigweed: 40
//
smiles-record: CCc1nn(C)c(=O)c(-c2c(C)oc3ccc(C)cc23)c1O
Plant response rating, Pigweed: 0
//
smiles-record: Cc1ccc2sc(C)c(-c3c(OC(=O)OC(C)C)c(C)nn(C)c3=O)c2c1
Plant response rating, Pigweed: 80
//
smiles-record: CCc1sc2c(C)cc(C)cc2c1-c1c(O)c(C)nn(C)c1=O
Plant response rating, Pigweed: 100
//
smiles-record: Cc1nn(C)c(=O)c(-c2c(Cl)n(C)c3ccccc23)c1O
Plant response rating, Pigweed: 0
//
smiles-record: COc1nn(C)c(=O)c(-c2c(C)sc3ccc(Cl)cc23)c1OC(C)=O
Plant response rating, Pigweed: 30

----------
tested on: foxtail, giant (giant foxtail, Setaria faberii); experiment: Test C greenhouse herbicide test, pre- and postemergence; format: in vivo; settings: Postemergence, 125 g ai/ha; scale 0 to 100, 0 is no effect, 100 is complete control
observable: Plant response rating, Foxtail, Giant

smiles-record: CCCC(=O)Oc1c(C)nn(C)c(=O)c1-c1c(C)sc2ccc(C)cc12
study-target: foxtail, giant (giant foxtail, Setaria faberii)
reported-value: 75

smiles-record: Cc1nn(C)c(=O)c(-c2c(C)sc3ccc(C(F)(F)F)cc23)c1O
study-target: foxtail, giant (giant foxtail, Setaria faberii)
reported-value: 70

smiles-record: Cc1nn(C)c(=O)c(-c2c(C)sc3ccc(Br)cc23)c1O
study-target: foxtail, giant (giant foxtail, Setaria faberii)
reported-value: 40

smiles-record: Cc1nn(C)c(=O)c(-c2cccc3ccccc23)c1O
study-target: foxtail, giant (giant foxtail, Setaria faberii)
reported-value: 10

smiles-record: CCc1ccc2ccccc2c1-c1c(O)c(C)nn(C)c1=O
study-target: foxtail, giant (giant foxtail, Setaria faberii)
reported-value: 80

smiles-record: COC(=O)Oc1cnn(C)c(=O)c1-c1c(C)sc2ccccc12
study-target: foxtail, giant (giant foxtail, Setaria faberii)
reported-value: 5

smiles-record: Cc1cc(C)c2ccccc2c1-c1c(O)c(C)nn(C)c1=O
study-target: foxtail, giant (giant foxtail, Setaria faberii)
reported-value: 90

smiles-record: Cc1ccc2ccccc2c1-c1c(O)c(I)nn(C)c1=O
study-target: foxtail, giant (giant foxtail, Setaria faberii)
reported-value: 60
